- Tested on: MCF7
- Assay text: percentage of EdU-negative (G0-arrested) nuclei per well, 72 h; higher = more G0 arrest
- Experimental setup: protein concentration 0.225 µM; reference: sequence is the full UniProt precursor, the tested protein was the secreted form or ectodomain
Endpoint label: percentage of EdU-negative (%)
Numeric answer only, unit % assumed.

Ask: Lab request: please report percentage of EdU-negative under test system MCF7 for "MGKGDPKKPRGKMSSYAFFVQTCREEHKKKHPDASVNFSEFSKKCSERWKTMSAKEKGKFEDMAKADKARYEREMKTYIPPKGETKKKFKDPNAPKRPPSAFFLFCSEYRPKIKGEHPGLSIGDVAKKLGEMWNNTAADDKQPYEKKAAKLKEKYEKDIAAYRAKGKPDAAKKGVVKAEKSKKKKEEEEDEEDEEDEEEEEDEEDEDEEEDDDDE"
Reply: 24.5

Ask: Lab request: please report percentage of EdU-negative under test system MCF7 for MWVLGIAATFCGLFLLPGFALQIQCYQCEEFQLNNDCSSPEFIVNCTVNVQDMCQKEVMEQSAGIMYRKSCASSAACLIASAGYQSFCSPGKLNSVCISCCNTPLCNGPRPKKRGSSASALRPGLRTTILFLKLALFSAHC [Q8N2G4]
Reply: 25.1

Ask: Lab request: please report percentage of EdU-negative under test system MCF7 for MKPLLVVFVFLFLWDPVLAGINSLSSEMHKKCYKNGICRLECYESEMLVAYCMFQLECCVKGNPAP [Q4QY38]
Reply: 27

---

- Tested on: MCF7;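 further: secreted proteins added to cultured cells, EdU pulse at the end, nuclei found by Hoechst imaging, EdU status from nuclear versus surrounding ring intensity ratio, PBS as neutral control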
- Assay text: percentage of EdU-negative (G0-arrested) nuclei per well, 72 h; higher = more G0 arrest
- Experimental setup: protein concentration 0.357143 µM; reference: sequence is the full UniProt precursor, the tested protein was the secreted form or ectodomain
Entries and their percentage of EdU-negative values follow.
Numeric answer only, unit % assumed.

{"Sequence record": "MNPTLILAAFCLGIASATLTFDHSLEAQWTKWKAMHNRLYGMNEEGWRRAVWEKNMKMIELHNQEYREGKHSFTMAMNAFGDMTSEEFRQVMNGFQNRKPRKGKVFQEPLFYEAPRSVDWREKGYVTPVKNQGQCGSCWAFSATGALEGQMFRKTGRLISLSEQNLVDCSGPQGNEGCNGGLMDYAFQYVQDNGGLDSEESYPYEATEESCKYNPKYSVANDTGFVDIPKQEKALMKAVATVGPISVAIDAGHESFLFYKEGIYFEPDCSSEDMDHGVLVVGYGFESTESDNNKYWLVKNSWGEEWGMGGYVKMAKDRRNHCGIASAASYPTV", "Endpoint label": "percentage of EdU-negative", "Reported value": 24}

Ask: Item MKLQCVSLWLLGTILILCSVDNHGLRRCLISTDMHHIEESFQEIKRAIQAKDTFPNVTILSTLETLQIIKPLDVCCVTKNLLAFYVDRVFKDHQEPNPKILRKISSIANSFLYMQKTLRQCQEQRQCHCRQEATNATRVIHDNYDQLEVHAAAIKSLGELDVFLAWINKNHEVMFSA [Q9UHD0] has what recorded percentage of EdU-negative?
Reply: 27.4

Ask: Item "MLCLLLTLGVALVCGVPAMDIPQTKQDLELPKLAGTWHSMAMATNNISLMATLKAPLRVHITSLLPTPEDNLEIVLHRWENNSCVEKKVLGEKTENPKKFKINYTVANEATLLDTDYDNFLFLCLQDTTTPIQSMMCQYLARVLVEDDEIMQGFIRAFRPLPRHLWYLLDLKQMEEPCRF" has what recorded percentage of EdU-negative?
Reply: 23

Ask: Item MCLSHLENMPLSHSRTQGAQRSSWKLWLFCSIVMLLFLCSFSWLIFIFLQLETAKEPCMAKFGPLPSKWQMASSEPPCVNKVSDWKLEILQNGLYLIYGQVAPNANYNDVAPFEVRLYKNKDMIQTLTNKSKIQNVGGTYELHVGDTIDLIFNSEHQVLKNNTYWGIILLANPQFIS [Q9UNG2] has what recorded percentage of EdU-negative?
Reply: 27

Ask: Item "MERLVIRMPFSHLSTYSLVWVMAAVVLCTAQVQVVTQDEREQLYTPASLKCSLQNAQEALIVTWQKKKAVSPENMVTFSENHGVVIQPAYKDKINITQLGLQNSTITFWNITLEDEGCYMCLFNTFGFGKISGTACLTVYVQPIVSLHYKFSEDHLNITCSATARPAPMVFWKVPRSGIENSTVTLSHPNGTTSVTSILHIKDPKNQVGKEVICQVLHLGTVTDFKQTVNKGYWFSVPLLLSIVSLVILLVLISILLYWKRHRNQDRGELSQGVQKMT" has what recorded percentage of EdU-negative?
Reply: 23.5

Ask: Item "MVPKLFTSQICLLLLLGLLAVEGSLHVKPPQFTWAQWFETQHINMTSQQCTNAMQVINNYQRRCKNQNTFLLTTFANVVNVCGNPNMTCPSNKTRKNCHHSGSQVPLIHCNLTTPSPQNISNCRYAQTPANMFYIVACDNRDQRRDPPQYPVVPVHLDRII" has what recorded percentage of EdU-negative?
Reply: 27

Ask: Item MAPRGCIVAVFAIFCISRLLCSHGAPVAPMTPYLMLCQPHKRCGDKFYDPLQHCCYDDAVVPLARTQTCGNCTFRVCFEQCCPWTFMVKLINQNCDSARTSDDRLCRSVS [Q6UW32] has what recorded percentage of EdU-negative?
Reply: 25.5
